- testedTarget: porcine PL (pancreatic lipase) (Sus scrofa)
- Construct: Lipase from porcine pancreas, Type II; purchased Sigma Aldrich L3126; host or cells: porcine pancreas (tissue-derived)
- Sequence (P00591 whole entry): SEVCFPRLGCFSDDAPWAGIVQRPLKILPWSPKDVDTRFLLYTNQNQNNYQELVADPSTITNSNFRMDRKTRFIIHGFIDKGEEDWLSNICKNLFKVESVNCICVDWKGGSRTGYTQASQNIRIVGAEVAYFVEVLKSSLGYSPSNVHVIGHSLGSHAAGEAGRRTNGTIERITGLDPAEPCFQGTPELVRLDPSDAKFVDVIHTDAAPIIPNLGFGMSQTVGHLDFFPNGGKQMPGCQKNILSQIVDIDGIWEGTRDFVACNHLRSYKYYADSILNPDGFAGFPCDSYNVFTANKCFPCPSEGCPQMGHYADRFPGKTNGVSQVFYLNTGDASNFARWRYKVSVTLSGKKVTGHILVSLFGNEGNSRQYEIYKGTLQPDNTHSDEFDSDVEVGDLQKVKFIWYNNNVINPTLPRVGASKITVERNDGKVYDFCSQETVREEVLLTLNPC
- assayMethodText: GC-FID based anti-lipase assay (phenyl acetate hydrolysis)
- Assay type: biochemical
- measurementSetup: porcine pancreatic lipase, phenyl acetate substrate, GC-FID; read-out: IC50 (nM) against PL
observedProperty: log10 IC50 (log10 of the value in nM)
Please be aware that the numbers have been log10-transformed from IC50 in nM.

Known results for compounds:
| compound | log10 IC50 |
| --- | --- |
| CC(C)(C)OC(=O)N[C@@H](Cc1ccc(F)cc1F)C(=O)[C@]1(C)CO1 | 1.46 |
| CC(C)C[C@H](NC(=O)OC(C)(C)C)C(=O)[C@@]1(C)CO1 | 2.08 |
| CC(C)(C)OC(=O)N[C@@H](Cc1ccccc1)C(=O)[C@@]1(C)CO1 | 1.69 |
| CCCCCCCCCCCC(=O)N[C@@H](CCCC)C(=O)N[C@@H](Cc1ccc(F)cc1F)C(=O)[C@@]1(C)CO1 | 0.97 |
| CCCCCCCCCCCC(=O)N[C@@H](Cc1ccc(F)cc1F)C(=O)[C@@]1(C)CO1 | 1.47 |

input: Param item = "CC(C)(C)OC(=O)N[C@@H](Cc1ccc(F)cc1)C(=O)[C@@]1(C)CO1" ; retrieve measured log10 IC50.
output: 1.67

input: Would you kindly repeat that for "CC(C)(C)OC(=O)N[C@@H](Cc1ccc(F)cc1F)C(=O)[C@@]1(C)CO1" ?
output: 1.47

input: Would you kindly repeat that for "C[C@]1(C(=O)[C@@H](N)Cc2ccc(F)cc2F)CO1" ?
output: 1.62

input: Would you kindly repeat that for "C[C@]1(C(=O)[C@@H](N)Cc2ccccc2)CO1" ?
output: 1.86

input: Would you kindly repeat that for CCCCCC(=O)N[C@H](C(=O)N[C@@H](CCS(C)(=O)=O)C(=O)N[C@@H](CC(C)C)C(=O)[C@@]1(C)CO1)C(C)C [carmaphycin B (2), carmaphycin B, reference compound] ?
output: 1.40

====

- System: HepG2 hepatoma cell line
- assayMethodText: Cytotoxicity, MTT assay, HepG2
- Format: cell-based
- measurementSetup: Homo sapiens, 72 h exposure, read-out: HepG2 Cells IC50
- Experimental: All the cell line that were used in this study are (CCD-1064SK) the human normal skin fibroblast and HepG2 hepatoma cell line. The CCD-1064SK and HepG2 cell line was purchased from American Type Culture Collection (ATCC, Manassas, VA, USA). Cells were cultured in Iscove’s medium as recommended from ATCC. […] Cell viability was determined by trypan blue exclusion using a hemocytometer. […] Viability of the cells was determined by trypan blue exclusion, and it exceeded 90% as counted in a hemocytometer. […]
// IC50 lookup, one value per entry

Known results for compounds:
| compound | IC50 |
| --- | --- |
| CC(C)(C)OC(=O)N[C@@H](Cc1ccccc1)C(=O)[C@@]1(C)CO1 [Analogue 7] | > 15 µM |
| CCCCCCCCCCCC(=O)N[C@@H](CCCC)C(=O)N[C@@H](Cc1ccc(F)cc1F)C(=O)[C@@]1(C)CO1 [Analogue 4] | 2.33 µM |
| CC(C)C[C@H](NC(=O)OC(C)(C)C)C(=O)[C@@]1(C)CO1 [Analogue 8] | > 15 µM |

input: Request - read-out IC50 | tested on HepG2 hepatoma cell line | compound C=C(C)C(=O)[C@H](Cc1ccc(F)cc1F)NC(=O)OC(C)(C)C [Analogue 13]
output: > 15 µM

input: Would you kindly repeat that for CCCCCCCCCCCC(=O)N[C@@H](Cc1ccc(F)cc1F)C(=O)[C@@]1(C)CO1 [Analogue 3] ?
output: 2.6 µM

input: Would you kindly repeat that for C[C@]1(C(=O)[C@@H](N)Cc2ccc(F)cc2F)CO1 [Analogue 9] ?
output: > 15 µM

input: Would you kindly repeat that for CC(C)(C)OC(=O)N[C@@H](Cc1ccc(F)cc1)C(=O)[C@@]1(C)CO1 [Analogue 6] ?
output: > 15 µM

input: Would you kindly repeat that for CC(C)(C)OC(=O)N[C@@H](Cc1ccc(F)cc1F)C(=O)[C@@]1(C)CO1 [Analogue 5] ?
output: > 15 µM

input: Would you kindly repeat that for C[C@]1(C(=O)[C@@H](N)Cc2ccccc2)CO1 [Analogue 10] ?
output: > 15 µM

input: Would you kindly repeat that for CC(C)(C)OC(=O)N[C@@H](Cc1ccc(F)cc1F)C(=O)[C@]1(C)CO1 [Analogue 11] ?
output: > 15 µM
